# EXPERIMENTAL_SYSTEM: BTK (Homo sapiens (Human), UniProt Q06187)
# Sequence (Q06187 whole entry): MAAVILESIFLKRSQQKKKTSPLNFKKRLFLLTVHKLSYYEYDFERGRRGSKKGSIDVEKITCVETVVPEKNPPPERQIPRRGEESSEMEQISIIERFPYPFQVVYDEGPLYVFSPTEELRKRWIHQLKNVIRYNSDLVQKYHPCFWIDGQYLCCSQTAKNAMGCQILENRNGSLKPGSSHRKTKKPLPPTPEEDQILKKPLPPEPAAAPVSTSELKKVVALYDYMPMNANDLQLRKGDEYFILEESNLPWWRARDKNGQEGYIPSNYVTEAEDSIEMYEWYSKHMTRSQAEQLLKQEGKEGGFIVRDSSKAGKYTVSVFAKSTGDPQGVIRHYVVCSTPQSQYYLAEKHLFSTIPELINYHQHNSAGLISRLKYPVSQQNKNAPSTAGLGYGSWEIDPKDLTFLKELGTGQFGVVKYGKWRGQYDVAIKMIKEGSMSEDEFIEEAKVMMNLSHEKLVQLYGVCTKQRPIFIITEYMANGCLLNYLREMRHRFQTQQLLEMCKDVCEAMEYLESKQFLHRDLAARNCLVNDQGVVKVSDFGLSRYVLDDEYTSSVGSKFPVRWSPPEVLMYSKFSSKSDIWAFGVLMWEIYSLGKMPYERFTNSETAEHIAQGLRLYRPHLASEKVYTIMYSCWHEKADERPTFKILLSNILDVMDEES
MEASURED_METRIC: IC50

Please review the entries below; each comes with its answer.
| COMPOUND | EXPERIMENTAL_SYSTEM | MEASURED_METRIC | RESULT |
| --- | --- | --- | --- |
| C=CS(=O)(=O)N1CCCC1COc1cnccc1-c1ccc(CNC(=O)c2cn(C(C)(C)C)nn2)c(C)c1F (stereo not drawn) [Example 50] | BTK (Homo sapiens (Human), UniProt Q06187) | IC50 | < 1 nM |
| C=CC(=O)N(C)CCOc1cncnc1-c1ccc(CNC(=O)c2noc(C(C)(C)C)n2)c(C)c1 [Example 3] | BTK (Homo sapiens (Human), UniProt Q06187) | IC50 | < 1 nM |
| C=CC(=O)N(C)CCOc1c(N)ncnc1-c1ccc(CNC(=O)c2noc(C(C)(C)C)n2)c(C)c1 [Example 2] | BTK (Homo sapiens (Human), UniProt Q06187) | IC50 | < 1 nM |
| C=CC(=O)N1CC[C@H](Oc2cnccc2-c2ccc(CNC(=O)c3cn(C(C)(C)C)nn3)c(C)c2)C1 (single isomer, unassigned) [Example 36] | BTK (Homo sapiens (Human), UniProt Q06187) | IC50 | 1 to 10 nM |
| C=CC(=O)N(C)CCOc1cnccc1-c1ccc(CNC(=O)c2noc(C(C)(C)C)n2)cc1F [Example 13] | BTK (Homo sapiens (Human), UniProt Q06187) | IC50 | < 1 nM |
| C=CC(=O)N1CCCC(Oc2cnccc2-c2ccc(CNC(=O)c3cn(C(C)(C)C)nn3)c(C)c2)C1 (stereo not drawn) [Example 38] | BTK (Homo sapiens (Human), UniProt Q06187) | IC50 | > 10 nM |
| C=CC(=O)N(C)CCOc1cnccc1-c1ccc(CNC(=O)c2noc(C(C)(C)C)n2)c(C)c1 [Example 4] | BTK (Homo sapiens (Human), UniProt Q06187) | IC50 | < 1 nM |
| Cc1cc(-c2ccncc2OC2CCN(C(=O)/C=C/CN(C)C)C2)ccc1CNC(=O)c1cn(C(C)(C)C)nn1 (stereo not drawn) [Example 41] | BTK (Homo sapiens (Human), UniProt Q06187) | IC50 | > 10 nM |
| C=CC(=O)N1CCCC(Oc2cncnc2-c2ccc(CNC(=O)c3cn(C(C)(C)C)nn3)c(C)c2)C1 (stereo not drawn) [Example 39] | BTK (Homo sapiens (Human), UniProt Q06187) | IC50 | > 10 nM |
| C=CC(=O)N(C)CCOc1c(N)ncnc1-c1ccc(CN2CCN(CC(C)(C)C)CC2=O)c(C)c1 [Example 9] | BTK (Homo sapiens (Human), UniProt Q06187) | IC50 | < 1 nM |

# map each compound to its IC50
1. C=CC(=O)N(C)CCOc1cnccc1-c1ccc(CNC(=O)c2ccn(C(C)(C)C)n2)c(Cl)c1F [Example 15]
2. C=CC(=O)N1CC(Oc2cnccc2-c2ccc(CNC(=O)c3cn(C(C)(C)C)nn3)c(C)c2)C1 [Example 33]
3. C=CC(=O)N(C)CCOc1cnccc1-c1ccc(CNC(=O)c2cc(C(C)(C)C)on2)c(F)c1F [Example 17]
4. C=CC(=O)N1CCC(COc2cnccc2-c2ccc(CNC(=O)c3cn(C(C)(C)C)nn3)c(C)c2F)C1 (stereo not drawn) [Example 51]
5. C=CC(=O)N(C)CCOc1cnccc1-c1ccc(CNC(=O)c2noc(C(C)(C)C)n2)c(C)c1F [Example 5]

["1 to 10 nM", "1 to 10 nM", "< 1 nM", "< 1 nM", "< 1 nM"]

Reference source for all entries: patent US12570631B2
